The measured values listed here are drawn from patent US20250332173A1.

Tested on: Target C
Method Notes: RT-qPCR splicing assay panel, Target C canonical junction (CJ) mRNA
Type: cell-based, human
Study Conditions: Homo sapiens; Table 5 panel; canonical junction qPCR; compound concentration having 50% response in CJ decrease; read-out: Target C IC50 (decrease in CJ mRNA levels)
Value Kind: IC50

The measured IC50 associated with `CN1CCC(c2ccc3c(=O)n(-c4ccc5nn(C)cc5c4)cnc3c2)CC1` reads 1000 to 10000 nM

The measured IC50 associated with Cc1cn2cc(-c3cc(F)c4c(=O)n(C5CCNC5)cnc4c3)cc(F)c2n1 (centres unmarked) reads 1000 to 10000 nM

The measured IC50 associated with `Cn1cc2c(=O)n(-c3ccc4c(=O)n(C5CCNCC5)ccc4c3)ccc2n1` reads > 10000 nM

The measured IC50 associated with Cc1cn2nc(-c3cc(C)c4c(=O)n(C5CCNC6(CC6)C5)ccc4c3)cc(C)c2n1 (stereo in doubt) reads < 100 nM

The measured IC50 associated with CNC1CCN(c2ccc3cc(-c4cc(C)c5nc(C)cn5n4)ccn3c2=O)C1 (centres unmarked) reads 1000 to 10000 nM

The measured IC50 associated with Cc1cn2cc(-c3ccc4c(=O)n(C5CCNC5)cc(C)c4c3)cc(C#N)c2n1 (centres unmarked) reads > 10000 nM

The measured IC50 associated with `Cc1cn2cc(-c3nc4ccc(N5CCN(C)CC5)cc4c(=O)[nH]3)cc(F)c2n1` reads 1000 to 10000 nM

The measured IC50 associated with `CNc1cc(-c2cc(F)c3nc(C)cn3c2)cc2ncn(C3CCNCC3)c(=O)c12` reads > 10000 nM

The measured IC50 associated with `CCOC(=O)c1cc(-c2ccc3c(=O)n(C4CCNCC4)ccc3c2)nn2cc(C)nc12` reads 1000 to 10000 nM

The measured IC50 associated with `Cc1cn2cc(-c3ccc4c(=O)n(C5CCNCC5)ccc4c3)cc(F)c2n1` reads < 100 nM

The measured IC50 associated with `CCN1CCC(n2ncc3cc(-c4cc(C)c5nc(C)cn5n4)cc(F)c3c2=O)CC1` reads 100 to 1000 nM

The measured IC50 associated with `Cc1cn2nc(-c3cc(O)c4c(=O)n(C5CCN(C)CC5)ncc4c3)cc(C)c2n1` reads 100 to 1000 nM

The measured IC50 associated with Cc1cn2cc(-c3ncc4c(=O)n(C5CCNC5)ccc4n3)cc(F)c2n1 (centres unmarked) reads > 10000 nM

The measured IC50 associated with Cc1cc(-c2ccc3c(=O)n(C4CCNC5(COC5)C4)cnc3c2)cc2cn(C)nc12 (centres unmarked) reads 1000 to 10000 nM

The measured IC50 associated with Cc1cn2cc(-c3ccc4c(=O)n(C5CCNC6(CC6)C5)ncc4c3)cc(Cl)c2n1 (centres unmarked) reads 1000 to 10000 nM

The measured IC50 associated with `Cc1cn2nc(-c3cc(F)c4c(=O)n(C5CCN(CCF)CC5)ncc4c3)cc(C)c2n1` reads 100 to 1000 nM

The measured IC50 associated with `Cc1cn2cc(-c3cc(F)c4c(=O)n(C5CCNCC5)cnc4c3)nc2c(C)n1` reads 1000 to 10000 nM

----------
Would you mind telling me the reported AC50 of each entry?
Tested on: HTT mRNA
Method Notes: RT-qPCR splicing assay, HTT canonical junction (CJ) and alternative junction (AJ) mRNA
Type: cell-based, human
Study Conditions: Homo sapiens, increase in HTT alternative junction (AJ) mRNA, RT-qPCR; read-out: HTT AJ AC50

The measured AC50 associated with Cc1cn2nc(-c3ccc4c(=O)n(C5C[C@@H](C)N[C@H](C)C5)ncc4n3)cc(C)c2n1 (stereo in doubt) [Compound 1537] reads 0.1 to 1 µM

The measured AC50 associated with Cc1cn2nc(-c3cc(O)c4c(=O)n(C5CCN(C)CC5)ncc4c3)cc(C)c2n1 [Compound 543] reads < 0.1 µM

The measured AC50 associated with Cc1cn2nc(-c3ccc4c(=O)n(C5CCNCC5)ccc4c3)cc(Oc3ccccc3)c2n1 [Compound 519] reads < 0.1 µM

The measured AC50 associated with Cc1cn2cc(-c3ccc4c(=O)n([C@@H]5CCN[C@@H](C)C5)cnc4c3)cc(F)c2n1 [Compound 293] reads 0.1 to 1 µM

The measured AC50 associated with Cc1cn2cc(-c3cc(F)c4c(=O)n(C5CCNCC5)ccc4c3)cc(F)c2n1 [Compound 370] reads < 0.1 µM

The measured AC50 associated with CCN1CCC(n2ccc3cc(-c4cc(C)c5nn(C)cc5c4)ncc3c2=O)CC1 [Compound 1207] reads 1 to 10 µM

The measured AC50 associated with Cc1cn2cc(-c3ccc4c(=O)n(C5CCNCC5)ccc4n3)c(O)cc2n1 [Compound 1240] reads > 10 µM

The measured AC50 associated with Cc1cn2cc(-c3ccc4c(=O)n(C5CCNC5)cc(C)c4c3)cc(F)c2n1 (centres unmarked) [Compound 441] reads > 10 µM
